Ref: PubChem BioAssay (NCATS)

Assay: OV-KATE Cancer Cell Toxicity qHTS against the NCATS CANVASS Library (AID 1347345)
Settings: OV-KATE cells viability, CellTiter-Glo luminescence, 72 h; series mostly up to 38.3 µM
Results filed as inconclusive are left out. Activity calls are given as the source filed them. Calls come from the whole dose curve; as a rule, active = well fitted cell-killing curve with a large enough effect; inconclusive = small, poorly fitted or top-dose-only effect; inactive = flat fitted curve, though single readings scatter. Numbered stars: 1 amine (or outer) side, 2 acyl side, 3 side chain; on linkers, the order of the positions; unused ones are H or OH. Square brackets hold non-standard residues; d marks the D form. Peptide text beside a SMILES is read from it. ξ: configuration not given here. X4 = O=C(C1CC2(c3ccc(O)cc3)c3ccccc3NC2N1[*:1])[*:2]; ξW = NC(Cc1c[nH]c2ccccc12)C(=O)O; ξY = NC(Cc1ccc(O)cc1)C(=O)O
assay-metric: outcome

Some molecules with recorded outcome:
[[record]]
molecule = "C=C1[C@H]2CC[C@@]3(C=CC(=O)[C@@](C)(CCC(=O)Nc4c(O)ccc(C(=O)O)c4O)C3C2)[C@H]1O (some centres undefined)"
test_result = "inactive"

[[record]]
molecule = "C[C@@H]1C(=O)[C@]23CC[C@H]1C[C@]21O[C@H]2C(C)(C)C=CC(=O)[C@@]23COC1=O"
test_result = "inactive"

[[record]]
molecule = "CC[C@H](C)[C@H](NC(=O)C(Cc1ccc(O)cc1)NC(=O)C(Cc1c[nH]c2ccccc12)NC(=O)[C@H](C)N)C(=O)N1C(C(=O)NC(Cc2ccc(O)cc2)C(=O)O)CC2(c3ccc(O)cc3)c3ccccc3NC12 (some centres undefined) (H-A[ξW][ξY]I[X4][ξY]-OH)"
test_result = "inactive"

[[record]]
molecule = "CC12C[C@]3(O)O[C@@H](O1)[C@]1(COC(=O)c4ccccc4)[C@@H]3CC21OC1OC(CO)C(O)C(O)C1O (some centres undefined)"
test_result = "inactive"

[[record]]
molecule = "C=C(C)[C@@H]1CC[C@]2(C)CC[C@]3(C)[C@H](CC[C@@H]4[C@@]5(C)CC[C@H](O)C(C)(C)[C@@H]5CC[C@]43C)[C@@H]12"
test_result = "inactive"


IN: Endpoint output: outcome of CC1(C)CCC[C@]2(C)[C@@H]1CC[C@@]13C[C@@H](CC[C@H]12)C(C)(O)C3 (some centres undefined) . Value?
OUT: inactive

IN: State the recorded outcome for this entry: C/C(=C\[C@H](C)C(=O)CCCC1CC(=O)NC(=O)C1)C(O)[C@@H](C)[C@H](O)C/C=C/CC/C=C/C(=O)O (some centres undefined)
OUT: inactive

IN: Given the molecule C=C1C[C@@]23C=CC(=O)[C@@](C)(CCC(=O)Nc4c(O)ccc(C(=O)O)c4O)C2C[C@@H]1CC3O (some centres undefined) , what is its reported outcome?
OUT: inactive
